Where these numbers come from: paper PMC6522510

# EC50 annotations
- Test system: U937
- measurement_protocol: Secondary dose-response HTS, Cell Titer Glo
- Type: cell-based, human
- condition_summary: Homo sapiens, U-937; secondary HTS, 72 h, average of triplicate; read-out: EC50 U937

compound	EC50 [nM]
CC(C)C[C@H](NC(=O)[C@H](CCc1ccccc1)NC(=O)CN1CCOCC1)C(=O)N[C@@H](Cc1ccccc1)C(=O)N[C@@H](CC(C)C)C(=O)[C@@]1(C)CO1 [Carfilzomib, reference compound]	10
Nc1ccn([C@@H]2O[C@H](CO)[C@@H](O)C2(F)F)c(=O)n1 [Gemcitabine, gemcitabine]	10
COC[C@H](NC(=O)c1cnc(C)s1)C(=O)N[C@@H](COC)C(=O)N[C@@H](Cc1ccccc1)C(=O)[C@@]1(C)CO1 [Oprozomib, reference compound]	10
CC(C)=CCC[C@]1(C)C=Cc2c(O)c3c(c(CC=C(C)C)c2O1)O[C@]12C(=C[C@@H]4C[C@H]1C(C)(C)O[C@@]2(C/C=C(/C)C(=O)O)C4=O)C3=O [Gambogic acid, reference compound]	190

----------
- Test system: MOLM-13
- measurement_protocol: cells
- Parameters: species or system AML cell lines (8); Secondary HTS, 10-point dose-response in triplicate, Cell Titer Glo viability, four-parameter fit EC50
- condition_summary: Homo sapiens, MOLM-13, 72 h, read-out: MOLM-13
pEC50: −log10 of the molar value.
assay_metric: pEC50

In [3]: df
Out[3]:
                                   compound  measured_target  assay_metric  observed_result
0   Cn1nnc2c(C(N)=O)ncn2c1=O [TEMOZOLOMIDE]          MOLM-13         pEC50           < 5.00
1  Nc1ncn([C@@H]2O[C@H](CO)[C@@H](O)[C@H]2O)c(=O)n1          MOLM-13         pEC50             5.35
2  CC(N[C@H]1C[C@@H]1c1ccccc1)c1ccc2c(c1)OCCO2 (some centres unmarked)          MOLM-13         pEC50           < 5.00
3          O=c1cc(N2CCOCC2)oc2c1ccc1ccccc12          MOLM-13         pEC50           < 5.00
4  COc1ccc(-c2cc3c(C)nc(N)nc3n([C@H]3CC[C@H](OCCO)CC3)c2=O)cn1          MOLM-13         pEC50             5.68
5  Cc1nn(C)c(C)c1C(=O)N1CCN(Cc2nc3ccccc3n2CC(C)(C)C)CC1          MOLM-13         pEC50           < 5.00
6  CC1(C)CCC(C)(C)c2cc(NC(=O)c3ccc(C(=O)O)cc3)ccc21          MOLM-13         pEC50           < 5.00
7  C=C(c1ccc(C(=O)O)cc1)c1cc2c(cc1C)C(C)(C)CCC2(C)C          MOLM-13         pEC50           < 5.00

----------
The entries below are paired with their reported EC50.
- Test system: U937
- measurement_protocol: Secondary dose-response HTS, Cell Titer Glo
- Format: cell-based, human
- condition_summary: secondary high-throughput screen; U937; read-out: average effective concentration, U937
assay_metric: EC50 (nM)

In [3]: df
Out[3]:
                                   compound  observed_result
0  CNC(=O)c1c(F)cccc1Nc1nc(Nc2cc3c(cc2OC)CCN3C(=O)CN(C)C)nc2[nH]ccc12 [GSK1838705A]             6200
1             O=C(/C=C/c1cccc(C(=O)NO)c1)NO             1300
2  CN(C)C1CCN(C(=O)c2ccc(NC(=O)Nc3ccc(-c4nc(N5CCOCC5)nc(N5CCOCC5)n4)cc3)cc2)CC1               24
3  CC1CCCCCC(=O)c2c(O)cc(O)cc2CC(=O)O1 (single isomer, unassigned; (-)) [(-)-CURVULARIN]              820

----------
- Test system: U937
- Design: species or system AML cell lines (8); Primary HTS, single concentration about 10 uM, Cell Titer Glo viability; log10 luminescence, per cent inhibition relative to cycloheximide control
- condition_summary: 72 h, relative to cycloheximide control, log10 luminescence; inhibitor
assay_metric: U937 %inh (%)

                                   compound  assay_metric  measurement_units  observed_result
0  CN(C)C(=O)O[C@H]1CN[C@H](C#Cc2cc3ncnc(Nc4ccc(OCc5cccc(F)c5)c(Cl)c4)c3s2)C1 [SJ000573053-1, U20298/139/1 | U20747/39/1]     U937 %inh                  %          -0.4617
1  Cc1ccc(S(=O)(=O)NC(=O)NN2CCCCCC2)cc1 [SJ000285887-7, TOLAZAMIDE]     U937 %inh                  %         -0.04508
2  [O-][S+]1CCN(Cc2ccc(-c3ccc4ncnc(Nc5ccc(OCc6ccccc6)c(F)c5)c4c3)o2)CC1 [SJ000573188-1, U14859/145/2]     U937 %inh                  %          -0.5877
3  O=C1CCc2cc(OCCCCc3nnnn3C3CCCCC3)ccc2N1 [SJ000285433-6, CILOSTAZOL]     U937 %inh                  %           -1.919
4  Nc1nccc(C#Cc2cncnc2Nc2ccc(OCc3cccc(F)c3)c(Cl)c2)n1 [SJ000573310-1, U16767/158/1]     U937 %inh                  %            80.64
5  Cn1cc(C2=C(c3cccc(Br)c3)C(=O)NC2=O)c2ccccc21 [SJ000580965-1]     U937 %inh                  %            10.11
6  O=C1NC(=N[C@@H](CO)c2ccccc2)S/C1=C\c1ccc2ncccc2c1 [SJ000581004-1]     U937 %inh                  %            9.087

----------
- System: CMK
- Parameters: species or system AML cell lines (8); Primary HTS, single concentration about 10 uM, Cell Titer Glo viability; log10 luminescence, per cent inhibition relative to cycloheximide control
- condition_summary: 72 h, relative to cycloheximide control, log10 luminescence; inhibitor
Counter-ions that a name gives are not always drawn.

molecule	measured_target	CMK %inh, %
Fc1ccc(-c2nn3ncccc3c2-c2ccnc(Nc3ccc4c(c3)OCCO4)n2)cc1	CMK	3.915
CC(CN(C)C)CN1c2ccccc2Sc2ccccc21 (stereo not drawn) [SJ000285488-4, TRIMEPRAZINE TARTRATE]	CMK	71.37
Cn1cc(C2=C(c3ccccc3C(F)(F)F)C(=O)NC2=O)c2ccccc21	CMK	21.16
O=C(Nc1n[nH]c2nc(-c3ccc(O)cc3)c(Br)cc12)C1CC1	CMK	121.4
Nc1ncnc2occ(-c3ccc(NC(=O)Nc4cc(C(F)(F)F)cc(C(F)(F)F)c4)cc3)c12	CMK	3.982
NCc1ccc(-n2c(-c3nonc3N)nc3cnccc32)cc1	CMK	18.18
CCC(=O)O[C@]1(C(=O)CCl)[C@@H](C)C[C@H]2[C@@H]3CCC4=CC(=O)C=C[C@]4(C)[C@@]3(F)[C@@H](O)C[C@@]21C [SJ000286006-4, CLOBETASOL PROPIONATE]	CMK	12.78
CCCCC1C(=O)N(c2ccccc2)N(c2ccc(O)cc2)C1=O (stereo not drawn)	CMK	-9.457
CS(=O)(=O)CCNCc1nc(-c2ccc3ncnc(Nc4ccc(OCc5cccc(C(F)(F)F)c5)cc4)c3c2)cs1	CMK	3.287
Cn1cc(C2=C(Nc3ccccc3)C(=O)NC2=O)c2ccccc21	CMK	-3.795
N#Cc1c(C(=O)c2ccccc2)cnn1-c1ccccc1	CMK	-0.4032
Clc1cnc(Oc2ccc(Oc3ncc(Cl)cc3Cl)cc2)c(Cl)c1	CMK	-2.209
C[C@]1(O)C[C@@H](c2nc(-c3ccc4ccc(-c5ccccc5)nc4c3)c3c(N)nccn32)C1	CMK	18.57
CCN1CCC(C(=O)Nc2n[nH]c3nnc(-c4cccc(F)c4F)cc23)CC1	CMK	106.6
CCOC(=O)[C@H](CCc1ccccc1)N[C@@H](C)C(=O)N1[C@H](C(=O)O)C[C@@H]2CCC[C@@H]21	CMK	1.362

----------
- Tested on: MOLM-13
- Format: cell-based
- condition_summary: Homo sapiens, 72 h, Cell Titer Glo
assay_metric: IC50 (nM)

molecule	measured_target	measurement_units	observed_result
Nc1nc(Cl)nc2c1ncn2[C@@H]1O[C@H](CO)[C@@H](O)[C@@H]1F [Clofarabine, clofarabine, reference compound]	MOLM-13	nM	37
Nc1ccn([C@@H]2O[C@H](CO)[C@@H](O)C2(F)F)c(=O)n1	MOLM-13	nM	0.7
CO[C@H]1C(=O)[C@]2(C)[C@@H](OC)C[C@H]3OC[C@@]3(OC(C)=O)[C@H]2[C@H](OC(=O)c2ccccc2)[C@]2(O)C[C@H](OC(=O)[C@H](O)[C@@H](NC(=O)OC(C)(C)C)c3ccccc3)C(C)=C1C2(C)C	MOLM-13	nM	1.2
Nc1nc(F)nc2c1ncn2[C@@H]1O[C@H](CO)[C@@H](O)[C@@H]1O [Fludarabine, fludarabine, reference compound]	MOLM-13	nM	1750
